Test system: Arabidopsis
Experiment: Arabidopsis 96 well microtiter plate injury and reversal test
Assay type: in vivo
Conditions: Arabidopsis thaliana; 96 well microtiter plate; read-out: estimated IC50 on Arabidopsis
Protocol: The compounds were tested in a 96 microtiter well plate containing various concentrations of probe compound with or without intermediates of the pyrimidine and purine biosynthesis pathways to detect reversal of injury. Plates were filled with 0.7% agar medium, seeded with Arabidopsis, and placed in a growth chamber for several days to allow for seed germination and plant growth. […] In addition, injury symptoms observed were recorded.
READOUT_NAME: IC50 (µM)
Provide only the numeric value, understood in µM.

IC50 for `O=C1NN=C/C1=C/Nc1ccc(F)cc1F` is 30
